# TGT: desmolase
# TEST_DETAILS: inhibition of cholesterol side chain cleavage (SCC) activity (desmolase)
# CONDITION_INFO: mitochondrial fraction from human placenta or bovine adrenals, 37° C., 30 min; read-out: DESMOLASE IC-50
Mark YES only when IC50 stays strictly below 40 µM. Values equal to the cut-off are NO.

- COMPOUND: "COc1ccc(C(CCc2c[nH]cn2)c2ccc(C#N)cc2)cc1 (centres unmarked) [Compound 10a]"
  TGT: "desmolase"
  ANSWER_LABEL: "YES"
- COMPOUND: "N#Cc1ccc(C(CCc2c[nH]cn2)c2ccc(F)cc2)cc1 (centres unmarked)"
  TGT: "desmolase"
  ANSWER_LABEL: "NO"
- COMPOUND: "N#Cc1ccc(C(CCc2c[nH]cn2)c2ccccc2)cc1 (centres unmarked)"
  TGT: "desmolase"
  ANSWER_LABEL: "YES"
- COMPOUND: "N#Cc1ccc(C(=CCCc2ccc(F)cc2)c2c[nH]cn2)cc1 [Compound 3b]"
  TGT: "desmolase"
  ANSWER_LABEL: "YES"
- COMPOUND: "N#Cc1ccc(C(=CCc2ccc(F)cc2)c2c[nH]cn2)cc1 (single isomer, unassigned; isomer a)"
  TGT: "desmolase"
  ANSWER_LABEL: "YES"
- COMPOUND: "N#Cc1ccc(C(=CCCc2ccc(F)cc2)c2c[nH]cn2)cc1 (single isomer, unassigned; isomer a) [Compound 4b]"
  TGT: "desmolase"
  ANSWER_LABEL: "YES"
- COMPOUND: "N#Cc1ccc(C(=CCCc2ccc(F)cc2)c2c[nH]cn2)cc1 (single isomer, unassigned; isomer b) [Compound 5b]"
  TGT: "desmolase"
  ANSWER_LABEL: "NO"
- COMPOUND: "N#Cc1ccc(C(CCCc2c[nH]cn2)c2ccc(C#N)cc2)cc1"
  TGT: "desmolase"
  ANSWER_LABEL: "NO"

====

# TGT: desmolase
# TEST_DETAILS: inhibition of cholesterol side chain cleavage (SCC) activity (desmolase)
# Format: biochemical
# CONDITION_INFO: mitochondrial fraction from human placenta or bovine adrenals, 37° C., 30 min; read-out: DESMOLASE IC-50
Mark met only when IC50 stays strictly below 40 µM. Values equal to the cut-off are not met.

- COMPOUND: "N#Cc1ccc(C(CCCc2ccccc2)c2c[nH]cn2)cc1 (stereo not shown)"
  ANSWER_LABEL: "met"
- COMPOUND: "N#Cc1ccc(C(CCCc2cncn2Cc2ccccc2)c2ccc(C#N)cc2)cc1"
  ANSWER_LABEL: "met"
- COMPOUND: "N#Cc1ccc(C(CCc2c[nH]cn2)c2ccc(C(F)(F)F)cc2)cc1 (stereo not shown)"
  ANSWER_LABEL: "not met"
- COMPOUND: "N#Cc1ccc(C(CCc2c[nH]cn2)c2ccc(C#N)cc2)cc1"
  ANSWER_LABEL: "met"
- COMPOUND: "N#Cc1ccc(C(=CCc2c[nH]cn2)c2ccc(C#N)cc2)cc1"
  ANSWER_LABEL: "met"
- COMPOUND: "N#Cc1ccc(C(=CCc2c[nH]cn2)c2ccc(F)cc2)cc1"
  ANSWER_LABEL: "not met"
- COMPOUND: "N#Cc1ccc(C(CCCc2ccc(F)cc2)c2c[nH]cn2)cc1 (stereo not shown)"
  ANSWER_LABEL: "met"

====

# TEST_DETAILS: acute toxicity, LD50, oral, mice
# CONDITION_INFO: mouse, in vivo, young adult female NMRI-Stmin mice
RECORDED_ENDPOINT: LD50 (mg/kg)

- COMPOUND: "N#Cc1ccc(C(CCc2c[nH]cn2)c2ccc(F)cc2)cc1 (centres unmarked) [Compound 3a]"
  UNITS_LABEL: "mg/kg"
  COMPARISON_SYMBOL: "="
  NUMERIC_VALUE: 210
- COMPOUND: "N#Cc1ccc(C(=CCc2ccc(F)cc2)c2c[nH]cn2)cc1 (single isomer, unassigned; isomer a) [Compound 6b]"
  UNITS_LABEL: "mg/kg"
  COMPARISON_SYMBOL: ">"
  NUMERIC_VALUE: 400

====

# TGT: human aromatase (Homo sapiens, UniProt P11511)
# Construct: The enzyme was prepared from human placenta, which is rich of the enzyme; from tissue; host or cells: human placenta, microsomal fraction (100000×g precipitate), not further purified
# Sequence (P11511 whole entry): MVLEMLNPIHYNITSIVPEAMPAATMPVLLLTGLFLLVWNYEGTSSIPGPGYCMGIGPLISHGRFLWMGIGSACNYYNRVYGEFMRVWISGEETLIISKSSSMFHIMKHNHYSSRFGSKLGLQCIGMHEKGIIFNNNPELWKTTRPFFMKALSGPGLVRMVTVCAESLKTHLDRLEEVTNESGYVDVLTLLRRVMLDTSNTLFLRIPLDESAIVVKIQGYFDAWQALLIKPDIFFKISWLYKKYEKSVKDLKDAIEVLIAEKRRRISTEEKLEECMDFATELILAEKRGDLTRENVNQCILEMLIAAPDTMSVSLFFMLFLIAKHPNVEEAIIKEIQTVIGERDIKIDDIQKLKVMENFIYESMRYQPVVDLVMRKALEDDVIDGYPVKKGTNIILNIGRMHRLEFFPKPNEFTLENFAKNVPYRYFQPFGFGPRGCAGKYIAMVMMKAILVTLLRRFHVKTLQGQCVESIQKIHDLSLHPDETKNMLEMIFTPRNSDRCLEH
# TEST_DETAILS: in vitro inhibition of aromatase (human placental microsomes, 3H2O release)
# Assay type: biochemical
# CONDITION_INFO: 37° C., 40 min, read-out: AROMATASE IC-50 (converted)

- SAMPLE_SMILES: "N#Cc1ccc(CC=C(c2ccc(F)cc2)c2c[nH]cn2)cc1"
  UNITS_LABEL: "nM"
  IC50: 1000
- SAMPLE_SMILES: "N#Cc1ccc(C(=CCc2c[nH]cn2)c2ccc(F)cc2)cc1"
  UNITS_LABEL: "nM"
  IC50: 650
- SAMPLE_SMILES: "N#Cc1ccc(C(=CCc2c[nH]cn2)c2ccc(C#N)cc2)cc1"
  UNITS_LABEL: "nM"
  IC50: 970
- SAMPLE_SMILES: "N#Cc1ccc(C(=CCc2cncn2Cc2ccccc2)c2ccc(C#N)cc2)cc1"
  UNITS_LABEL: "nM"
  IC50: 3200
- SAMPLE_SMILES: "N#Cc1ccc(C(CCCc2cncn2Cc2ccccc2)c2ccc(C#N)cc2)cc1"
  UNITS_LABEL: "nM"
  IC50: 5000
